system: SK-OV-3 ovarian; assay: NCI-60 one-dose screen, 48 h; settings: 10 µM
The panel holds about 83,000 compounds, 20% with a hit somewhere; the sample as a whole holds those more often. The source made the active and inactive calls. How the source made its calls: active means growth percent below 10; inactive means the rest.
Hello, when you answer, please use one of the following outcomes: label 1 for active, label 0 for inactive

Could you kindly confirm the outcome this assay logged for `C/C1=C\[C@H](C)C[C@H](C)OC(=O)C[C@H](c2ccc(O)cc2)NC(=O)[C@@H](Cc2c(Br)[nH]c3ccccc23)N(C)C(=O)[C@H](C)NC(=O)[C@@H](C)C1` ?
label 1

# outcome recorded in this test, key = `[Cl][Sn]([c]1ccccc1)([c]1ccccc1)[c]1ccccc1`
label 1

Lab log entry: `ClCc1ccc2ccccc2n1` — outcome as called in the assay?
label 0

Hi team, can someone confirm the assay call for `CC/C(=C/c1ccc(OC)cc1)[N+](=O)[O-]` ?
label 0

Outcome? `O=C1C=Cc2ccccc2C1=O`
label 0

Per the assay record, what outcome was assigned to COC1CC2C=C(C)/C=C/C=C/C(=O)NC(c3ccccc3)C/C=C/CCC(O)CC(=O)C2=C1O (centres undefined) ?
label 1

Recorded test call requested for `[Cl][Hg][c]1ccc2ccccc2c1`
label 1

Give the logged outcome of this assay for the following molecule: `COc1ccc(/C=C(\C)[N+](=O)[O-])cc1OC`
label 0

Could you kindly confirm the outcome this assay logged for CC12OOC(c3ccccc31)c1c2ccc2ccccc12 (centres undefined) ?
label 0

Recorded test outcome, item COC(=O)C1C(O)C(C)C(O)C(C)/C=C\C=C(C)C(=O)Nc2c(C)c(OC(C)=O)c3c(c2O)C(=O)C(C)=C2OCOC(=C23)C(C)=CC(C)(O)C(O)C(C)C1O (centres undefined)
label 0

Which outcome did this test record for the molecule `NNc1ccccc1` ?
label 0

Can you look up the reported call for `CN(CCCl)c1ccc(/C=C/C2=[N+](C)c3ccccc3C2(C)C)cc1` for me?
label 1

Which outcome did this test record for the molecule `O=[N+]([O-])c1cc[n+]([O-])c2ccccc12` ?
label 1

What did this assay record as the result for `CC(=O)[O][Hg][c]1c(C)c(C)cc(C)c1C` ?
label 0
